- Experimental Setup: in cyclohexane, 308.15 K

{"Smiles Representation": "CC(=O)Nc1ccc(CC(=O)O)cc1", "solubility (mole fraction)": "7.44e-06"}

* * *

- Experimental Setup: in ethanol, 318.15 K

{"Smiles Representation": "CC(=O)Nc1ccc(CC(=O)O)cc1", "solubility (mole fraction)": 0.0238}

* * *

- Experimental Setup: in n-propanol, 278.15 K

{"Smiles Representation": "CC(=O)Nc1ccc(CC(=O)O)cc1", "solubility (mole fraction)": 0.00538}

* * *

- Experimental Setup: in 2-butanone, 298.15 K

{"Smiles Representation": "CC(=O)Nc1ccc(CC(=O)O)cc1", "solubility (mole fraction)": 0.00975}

* * *

- Experimental Setup: in ethyl acetate, 288.15 K

{"Smiles Representation": "CC(=O)Nc1ccc(CC(=O)O)cc1", "solubility (mole fraction)": 0.000985}

* * *

- Experimental Setup: in acetonitrile, 303.15 K

{"Smiles Representation": "CC(=O)Nc1ccc(CC(=O)O)cc1", "solubility (mole fraction)": 0.00262}

* * *

- Experimental Setup: in ethyl acetate, 283.15 K
Recorded Endpoint: solubility (mole fraction)

{"Smiles Representation": "CC(=O)Nc1ccc(CC(=O)O)cc1", "Reported Value": 0.000783}

* * *

- Experimental Setup: in cyclohexane, 283.15 K

{"Smiles Representation": "CC(=O)Nc1ccc(CC(=O)O)cc1", "solubility (mole fraction)": "1.89e-06"}

* * *

- Experimental Setup: in cyclohexane, 293.15 K

{"Smiles Representation": "CC(=O)Nc1ccc(CC(=O)O)cc1", "solubility (mole fraction)": "3.4e-06"}

* * *

- Experimental Setup: in n-butanol, 298.15 K

{"Smiles Representation": "CC(=O)Nc1ccc(CC(=O)O)cc1", "solubility (mole fraction)": 0.00871}

* * *

- Experimental Setup: in ethyl acetate, 303.15 K
Recorded Endpoint: solubility (mole fraction)

{"Smiles Representation": "CC(=O)Nc1ccc(CC(=O)O)cc1", "Recorded Endpoint": "solubility (mole fraction)", "Reported Value": 0.00193}

* * *

- Experimental Setup: in n-propanol, 293.15 K

{"Smiles Representation": "CC(=O)Nc1ccc(CC(=O)O)cc1", "solubility (mole fraction)": 0.00889}

* * *

- Experimental Setup: in 2-butanone, 278.15 K

{"Smiles Representation": "CC(=O)Nc1ccc(CC(=O)O)cc1", "solubility (mole fraction)": 0.00496}

* * *

- Experimental Setup: in toluene, 303.15 K

{"Smiles Representation": "CC(=O)Nc1ccc(CC(=O)O)cc1", "solubility (mole fraction)": "9.71e-06"}

* * *

- Experimental Setup: in water, 293.15 K
Recorded Endpoint: solubility (mole fraction)

{"Smiles Representation": "CC(=O)Nc1ccc(CC(=O)O)cc1", "Recorded Endpoint": "solubility (mole fraction)", "Reported Value": 0.000336}

* * *

- Experimental Setup: in isopropanol, 298.15 K

{"Smiles Representation": "CC(=O)Nc1ccc(CC(=O)O)cc1", "solubility (mole fraction)": 0.00666}

* * *

- Experimental Setup: in toluene, 283.15 K

{"Smiles Representation": "CC(=O)Nc1ccc(CC(=O)O)cc1", "solubility (mole fraction)": "3.44e-06"}

* * *

- Experimental Setup: in acetone, 293.15 K

{"Smiles Representation": "CC(=O)Nc1ccc(CC(=O)O)cc1", "solubility (mole fraction)": 0.00646}

* * *

- Experimental Setup: in 2-butanone, 308.15 K

{"Smiles Representation": "CC(=O)Nc1ccc(CC(=O)O)cc1", "solubility (mole fraction)": 0.0137}

* * *

- Experimental Setup: in acetone, 313.15 K
Recorded Endpoint: solubility (mole fraction)

{"Smiles Representation": "CC(=O)Nc1ccc(CC(=O)O)cc1", "Recorded Endpoint": "solubility (mole fraction)", "Reported Value": 0.0136}

* * *

- Experimental Setup: in toluene, 318.15 K

{"Smiles Representation": "CC(=O)Nc1ccc(CC(=O)O)cc1", "solubility (mole fraction)": "2.04e-05"}

* * *

- Experimental Setup: in ethanol, 278.15 K
Recorded Endpoint: solubility (mole fraction)

{"Smiles Representation": "CC(=O)Nc1ccc(CC(=O)O)cc1", "Recorded Endpoint": "solubility (mole fraction)", "Reported Value": 0.0062}

* * *

- Experimental Setup: in 2-butanone, 293.15 K
Recorded Endpoint: solubility (mole fraction)

{"Smiles Representation": "CC(=O)Nc1ccc(CC(=O)O)cc1", "Recorded Endpoint": "solubility (mole fraction)", "Reported Value": 0.00821}

* * *

- Experimental Setup: in ethyl acetate, 308.15 K

{"Smiles Representation": "CC(=O)Nc1ccc(CC(=O)O)cc1", "solubility (mole fraction)": 0.00238}

* * *

- Experimental Setup: in n-butanol, 313.15 K

{"Smiles Representation": "CC(=O)Nc1ccc(CC(=O)O)cc1", "solubility (mole fraction)": 0.0149}

* * *

- Experimental Setup: in acetonitrile, 293.15 K
Recorded Endpoint: solubility (mole fraction)

{"Smiles Representation": "CC(=O)Nc1ccc(CC(=O)O)cc1", "Recorded Endpoint": "solubility (mole fraction)", "Reported Value": 0.00175}

* * *

- Experimental Setup: in n-butanol, 288.15 K

{"Smiles Representation": "CC(=O)Nc1ccc(CC(=O)O)cc1", "solubility (mole fraction)": 0.0058}

* * *

- Experimental Setup: in water, 313.15 K

{"Smiles Representation": "CC(=O)Nc1ccc(CC(=O)O)cc1", "solubility (mole fraction)": 0.000826}

* * *

- Experimental Setup: in ethanol, 288.15 K

{"Smiles Representation": "CC(=O)Nc1ccc(CC(=O)O)cc1", "solubility (mole fraction)": 0.00851}

* * *

- Experimental Setup: in methanol, 293.15 K

{"Smiles Representation": "CC(=O)Nc1ccc(CC(=O)O)cc1", "solubility (mole fraction)": 0.0138}

* * *

- Experimental Setup: in isopropanol, 313.15 K

{"Smiles Representation": "CC(=O)Nc1ccc(CC(=O)O)cc1", "solubility (mole fraction)": 0.0123}

* * *

- Experimental Setup: in acetone, 303.15 K

{"Smiles Representation": "CC(=O)Nc1ccc(CC(=O)O)cc1", "solubility (mole fraction)": 0.00942}

* * *

- Experimental Setup: in acetonitrile, 283.15 K
Recorded Endpoint: solubility (mole fraction)

{"Smiles Representation": "CC(=O)Nc1ccc(CC(=O)O)cc1", "Recorded Endpoint": "solubility (mole fraction)", "Reported Value": 0.00116}

* * *

- Experimental Setup: in toluene, 293.15 K
Recorded Endpoint: solubility (mole fraction)

{"Smiles Representation": "CC(=O)Nc1ccc(CC(=O)O)cc1", "Recorded Endpoint": "solubility (mole fraction)", "Reported Value": "5.88e-06"}

* * *

- Experimental Setup: in 2-butanone, 313.15 K
Recorded Endpoint: solubility (mole fraction)

{"Smiles Representation": "CC(=O)Nc1ccc(CC(=O)O)cc1", "Recorded Endpoint": "solubility (mole fraction)", "Reported Value": 0.0162}

* * *

- Experimental Setup: in ethyl acetate, 293.15 K
Recorded Endpoint: solubility (mole fraction)

{"Smiles Representation": "CC(=O)Nc1ccc(CC(=O)O)cc1", "Reported Value": 0.00126}

* * *

- Experimental Setup: in acetonitrile, 313.15 K

{"Smiles Representation": "CC(=O)Nc1ccc(CC(=O)O)cc1", "solubility (mole fraction)": 0.00381}

* * *

- Experimental Setup: in n-propanol, 288.15 K

{"Smiles Representation": "CC(=O)Nc1ccc(CC(=O)O)cc1", "solubility (mole fraction)": 0.00745}

* * *

- Experimental Setup: in ethanol, 308.15 K
Recorded Endpoint: solubility (mole fraction)

{"Smiles Representation": "CC(=O)Nc1ccc(CC(=O)O)cc1", "Recorded Endpoint": "solubility (mole fraction)", "Reported Value": 0.0171}

* * *

- Experimental Setup: in ethanol, 293.15 K

{"Smiles Representation": "CC(=O)Nc1ccc(CC(=O)O)cc1", "solubility (mole fraction)": 0.0102}

* * *

- Experimental Setup: in n-butanol, 308.15 K
Recorded Endpoint: solubility (mole fraction)

{"Smiles Representation": "CC(=O)Nc1ccc(CC(=O)O)cc1", "Reported Value": 0.0126}

* * *

- Experimental Setup: in water, 318.15 K

{"Smiles Representation": "CC(=O)Nc1ccc(CC(=O)O)cc1", "solubility (mole fraction)": 0.00104}

* * *

- Experimental Setup: in methanol, 283.15 K

{"Smiles Representation": "CC(=O)Nc1ccc(CC(=O)O)cc1", "solubility (mole fraction)": 0.00927}

* * *

- Experimental Setup: in 2-butanone, 288.15 K

{"Smiles Representation": "CC(=O)Nc1ccc(CC(=O)O)cc1", "solubility (mole fraction)": 0.00689}

* * *

- Experimental Setup: in n-butanol, 318.15 K

{"Smiles Representation": "CC(=O)Nc1ccc(CC(=O)O)cc1", "solubility (mole fraction)": 0.0178}

* * *

- Experimental Setup: in acetonitrile, 308.15 K
Recorded Endpoint: solubility (mole fraction)

{"Smiles Representation": "CC(=O)Nc1ccc(CC(=O)O)cc1", "Recorded Endpoint": "solubility (mole fraction)", "Reported Value": 0.00318}

// data source = BigSolDB 2.1
